Listed next: entries and their corresponding concentration at 1 hr.
- Assay notes: Pharmacokinetics of Nab-2 in monkeys
- Assay type: in vivo
- Assay conditions: male, blood; Nab-2 IV 5 mg/kg, cynomolgus monkey; time 1 hr; label = analyte

Compound | concentration at 1 hr / ng/mL
CCCCCC(=O)O[C@@H](C(=O)O[C@H]1C[C@@]2(O)[C@@H](OC(=O)c3ccccc3)C3[C@](C)(C(=O)[C@H](O)C(=C1C)C2(C)C)[C@@H](O)C[C@H]1OC[C@@]31OC(C)=O)[C@@H](NC(=O)OC(C)(C)C)c1ccccc1 (some centres unmarked) | 534
CC(=O)O[C@@]12CO[C@@H]1C[C@H](O)[C@@]1(C)C(=O)[C@H](O)C3=C(C)[C@@H](OC(=O)[C@H](O)[C@@H](NC(=O)OC(C)(C)C)c4ccccc4)C[C@@](O)([C@@H](OC(=O)c4ccccc4)C12)C3(C)C (some centres unmarked) [Docetaxel, docetaxel, reference compound] | 32.1

* * *

Listed next: entries and their corresponding AUC(0-inf).
- Assay notes: Pharmacokinetics of Nab-2 in monkeys
- Format: in vivo
- Assay conditions: male, blood; Nab-2 IV 20 mg/kg, cynomolgus monkey; label = analyte
Observation type: AUC(0-inf) (ng·h/mL)

Compound | Measured number
CC(=O)O[C@@]12CO[C@@H]1C[C@H](O)[C@@]1(C)C(=O)[C@H](O)C3=C(C)[C@@H](OC(=O)[C@H](O)[C@@H](NC(=O)OC(C)(C)C)c4ccccc4)C[C@@](O)([C@@H](OC(=O)c4ccccc4)C12)C3(C)C (some centres unmarked) [Docetaxel, docetaxel, reference compound] | 394
CCCCCC(=O)O[C@@H](C(=O)O[C@H]1C[C@@]2(O)[C@@H](OC(=O)c3ccccc3)C3[C@](C)(C(=O)[C@H](O)C(=C1C)C2(C)C)[C@@H](O)C[C@H]1OC[C@@]31OC(C)=O)[C@@H](NC(=O)OC(C)(C)C)c1ccccc1 (some centres unmarked) [Compound 2, 2′-Hexanoyl Docetaxel] | 7860

* * *

- Assay notes: Pharmacokinetics of Nab-2 in monkeys
- Assay type: in vivo
- Assay conditions: male, blood; Nab-2 IV 5 mg/kg, cynomolgus monkey

Compound | Measurement unit | clearance
CCCCCC(=O)O[C@@H](C(=O)O[C@H]1C[C@@]2(O)[C@@H](OC(=O)c3ccccc3)C3[C@](C)(C(=O)[C@H](O)C(=C1C)C2(C)C)[C@@H](O)C[C@H]1OC[C@@]31OC(C)=O)[C@@H](NC(=O)OC(C)(C)C)c1ccccc1 (stereo partly shown) [Compound 2, 2′-Hexanoyl Docetaxel] | mL/min/kg | 23.1

* * *

- Assay notes: Pharmacokinetics of Nab-2 in monkeys
- Assay type: in vivo
- Assay conditions: male, blood; Nab-2 IV 5 mg/kg, cynomolgus monkey; time 0.083 hr; label = analyte

Compound | concentration at […] / ng/mL
CC(=O)O[C@@]12CO[C@@H]1C[C@H](O)[C@@]1(C)C(=O)[C@H](O)C3=C(C)[C@@H](OC(=O)[C@H](O)[C@@H](NC(=O)OC(C)(C)C)c4ccccc4)C[C@@](O)([C@@H](OC(=O)c4ccccc4)C12)C3(C)C (some centres unmarked) [Docetaxel, docetaxel, reference compound] | 36.7
CCCCCC(=O)O[C@@H](C(=O)O[C@H]1C[C@@]2(O)[C@@H](OC(=O)c3ccccc3)C3[C@](C)(C(=O)[C@H](O)C(=C1C)C2(C)C)[C@@H](O)C[C@H]1OC[C@@]31OC(C)=O)[C@@H](NC(=O)OC(C)(C)C)c1ccccc1 (some centres unmarked) | 1070

The measured values listed here are drawn from patent US20180289620A1.
